Entries and their melting point values follow.

Here's what some known entries look like.
>>> result("Cc1ccc(-c2ccnc3c2C(=O)N(Cc2ccccc2)CCO3)cc1 [Reference Example 133]")
"203 to 204 °C"
>>> result("CSCc1cc(-c2ccccc2)c2c(n1)OCCN(Cc1cc(C(F)(F)F)cc(C(F)(F)F)c1)C2=O [Reference Example 96]")
"165 to 166 °C"
>>> result("O=C(c1cc(-c2ccccc2)c2c(n1)OCCN(Cc1cc(C(F)(F)F)cc(C(F)(F)F)c1)C2=O)N1CCOCC1 [Reference Example 116]")
"265 to 266 °C"

Prompt: Answer with reported melting point of C[C@@H]1CCn2c(c(-c3ccc(CO)cc3)c3cccnc3c2=O)C(=O)N(Cc2cc(C(F)(F)F)cc(C(F)(F)F)c2)C1 [Reference Example 137]
Response: 240 to 241 °C

Prompt: For CC(=O)NCc1cc(-c2ccccc2)c2c(n1)OCCN(Cc1cc(C(F)(F)F)cc(C(F)(F)F)c1)C2=O [Reference Example 102] , write its melting point.
Response: 223 to 224 °C

Prompt: Specify reported melting point for the compound shown: COc1cc(CN2CCOc3nccc(-c4ccccc4)c3C2=O)cc(OC)c1OC [Reference Example 118]
Response: 177 to 179 °C

Prompt: Annotate the compound CN1CCN(Cc2cc(C(F)(F)F)cc(C(F)(F)F)c2)C(=O)c2c(-c3ccccc3)ccnc2C1=O [Reference Example 105] with its measured melting point.
Response: 167 to 169 °C
